# assay-target: human A2b adenosine receptor (Homo sapiens (Human))
# Sequence (P29275 whole entry): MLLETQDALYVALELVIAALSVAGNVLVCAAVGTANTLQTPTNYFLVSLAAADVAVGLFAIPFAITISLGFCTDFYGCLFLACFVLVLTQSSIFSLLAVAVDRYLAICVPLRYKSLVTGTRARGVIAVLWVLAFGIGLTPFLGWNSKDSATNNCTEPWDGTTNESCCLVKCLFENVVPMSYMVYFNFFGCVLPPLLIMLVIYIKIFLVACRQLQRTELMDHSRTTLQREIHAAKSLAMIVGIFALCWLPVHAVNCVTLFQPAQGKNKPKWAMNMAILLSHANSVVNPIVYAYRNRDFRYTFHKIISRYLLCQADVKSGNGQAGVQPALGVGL
# assay-name: A2b radioligand filtration binding assay (tritiated proprietary A2b antagonist, HEK293 membranes)
# study-conditions: unstarred values: radioligand binding
pIC50: −log10 of the molar value.
parameter: pIC50

> print(dat)
                                   compound  endpoint.result
1  COc1cccc2c1nc(N)n1nc([C@@H]3CCCN(c4cnn(C5CCCC5O)c4)C3)nc21 (stereo partly drawn) [Example 58A]             7.19

I. COc1cccc2c1nc(N)n1nc([C@@H]3CCCN(c4cnn(CC5(O)CCC5)c4)C3)nc21 [Example 23]
II. COc1cccc2c1nc(N)n1nc([C@@H]3CCCN(c4ncn(CC(F)(F)F)n4)C3)nc21 [Example 69]
Qu. Lab log: flag the item ( I or II ) with the smaller pIC50 figure. Answer format: the label of the selected item.
Ans. II

* * *

# assay-target: human A2a adenosine receptor (Homo sapiens (Human))
# Sequence (P29274 whole entry): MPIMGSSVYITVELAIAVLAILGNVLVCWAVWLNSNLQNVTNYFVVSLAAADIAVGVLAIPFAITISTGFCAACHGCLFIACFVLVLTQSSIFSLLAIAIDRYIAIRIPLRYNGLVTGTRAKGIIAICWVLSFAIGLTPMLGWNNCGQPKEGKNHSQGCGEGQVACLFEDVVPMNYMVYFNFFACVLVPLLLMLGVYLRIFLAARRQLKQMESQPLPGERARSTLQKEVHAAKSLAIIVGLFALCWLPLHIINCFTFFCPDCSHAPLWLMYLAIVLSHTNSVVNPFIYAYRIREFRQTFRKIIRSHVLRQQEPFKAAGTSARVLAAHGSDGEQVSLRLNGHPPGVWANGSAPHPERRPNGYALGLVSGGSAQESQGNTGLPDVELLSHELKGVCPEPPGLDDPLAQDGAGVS
# assay-name: A2a receptor affinity radioligand binding assay ([3H] SCH58261, membranes from HEK293 or CHO cells)
# study-conditions: unstarred values: radioligand binding
parameter: IC50 (nM)

// known answers, use as guide
> print(dat)
                                   compound  endpoint.result
1  COc1cccc2c1nc(N)n1nc([C@@H]3CCCN(c4ccn(C(C)C)c(=O)c4)C3)nc21 [Example 89]              1.5
2  COc1cccc2c1nc(N)n1nc([C@@H]3CCCN(c4cnn(C(C)(C)C(=O)NC5CCC5)c4)C3)nc21 [Example 37]              1.5
3  COc1cccc2c1nc(N)n1nc([C@@H]3CCCN(c4cc(C)c(=O)n(C)c4)C3)nc21 [Example 93]              1.5
4  COc1cccc2c1nc(N)n1nc([C@@H]3CCCN(c4cnccn4)C3)nc21 [Example 102]                1
5  C[C@H]1CC[C@@H](c2nc3c4ccc(Cl)cc4nc(N)n3n2)CN1c1cnn(CC(C)(C)O)c1 [Example 203]              0.7

1. COc1ccc2c(c1)nc(N)n1nc([C@@H]3CCCN(c4cnn([C@H](C)C(C)(C)O)c4C)C3)nc21 [Example 189A]
2. CCn1ccc(N2CCC[C@@H](c3nc4c5cccc(OC)c5nc(N)n4n3)C2)cc1=O [Example 91]
3. COc1cccc2c1nc(N)n1nc([C@@H]3CCCN(c4cnn(C5CCCC5OC)c4)C3)nc21 (some centres unmarked) [Example 56]
Qu. Order by IC50, ascending. In plain terms: list the labels in the order you were asked to.
Ans. 1, 3, 2
(1: 0.6 nM, 3: 0.9 nM, 2: 1.8 nM)

* * *

# assay-target: UniProt P29274
# assay-name: A2a receptor affinity radioligand binding assay ([3H] SCH58261, membranes from HEK293 or CHO cells)
# study-conditions: unstarred values: radioligand binding
parameter: IC50 (nM)

> print(dat)
                                   molecule  endpoint.result
1  COc1cccc2c1nc(N)n1nc([C@@H]3CCCN(c4ccc(=O)n(C(F)F)c4)C3)nc21              0.7

a. COc1cccc2c1nc(N)n1nc([C@@H]3CCCN(c4cnn(CCF)c4)C3)nc21
b. COc1cccc2c1nc(N)n1nc(C3CCC(C)N(c4cnn(C5CC5)c4)C3)nc21 (single isomer, unassigned) [Example 141D]
Qu. Lab log: flag the item ( a or b ) with the smaller IC50 figure. Answer format: the label of the selected item.
Ans. a
(a: 0.7 nM, b: 3.1 nM)

A. COc1cccc2c1nc(N)n1nc([C@@H]3CCCN(c4ccc(=O)n(C)n4)C3)nc21
B. COc1cccc2c1nc(N)n1nc([C@@H]3CCCN(c4cnn([C@H]5CCCC[C@]5(C)O)c4)C3)nc21
C. COc1cccc2c1nc(N)n1nc([C@@H]3CCCN(c4cnn(C5CCCC5O)c4)C3)nc21 (single isomer, unassigned) [Example 58B]
Qu. Arrange these molecules by their IC50, starting with the largest number. In plain terms: list the labels in the order you were asked to.
Ans. A, B, C
